target: rSARS2-B.1.617.2 S aa16-1211 10+4x aa mut., C-His (SARS-CoV-2, UniProt P0DTC2 16-1211); assay: flow cytometry, blocking of binding to hACE-2 cells
Overview of reported percent blocking across a group of binders:
Kindly answer with a numeric value in %, unit omitted.

Answered examples (4):
1. 1035414 (antibody, V domains shown) VH: QVQLKQSGAELVRPGASVKLSCKTSGYIFTSYWIHWVKQRSGQGLEWIARIYPGTGNTYYNEKFKGKATLTADKSSTTAYMQLSSLKSEDSAVYFCARGEDNLYYYAMDYWGQGTSVTVSS VL: NIVLTQSPASLAVSLGQRATISCRASESVDSYGTSFMHWYQQKPGQPPKLLIYLASNLESGVPASFSGSGSRTDFTLTIDPVEADDAATYYCQQNNEDPWTFGGGTKLEIK
73.5
2. 1035752 (antibody, V domains shown) VH: QVQLQQPGAELVRPGASVKMSCKASGYTFTSHSIHWVKQTPGQGLEWIGAVYPGNGDTSYYQKFKGKATLTADKSSSTAYMHLSSLTSEDSAVYYCARDGYSDYYAMDCWGQGTSVTVSS VL: DIVMTQSQKFMSTSVGDRVSVTCKASQNVGTNVAWYQQKPGQSPKALIYSASYRYSGVPDRFTGSGSGTDFTLTINNVQSEDLAEYFCQQYNRYPWTFGGGTKLEIK
0
3. 1035240 (antibody, V domains shown) VH: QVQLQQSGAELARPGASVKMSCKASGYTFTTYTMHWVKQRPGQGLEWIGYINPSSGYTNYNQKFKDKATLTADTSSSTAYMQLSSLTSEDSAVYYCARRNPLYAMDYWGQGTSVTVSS VL: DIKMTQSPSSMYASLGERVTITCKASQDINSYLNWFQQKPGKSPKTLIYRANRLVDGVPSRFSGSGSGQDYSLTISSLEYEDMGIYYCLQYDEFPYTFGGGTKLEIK
0
4. 1035433 (antibody, V domains shown) VH: QVQLQQSGPQLVRPGASVKISCKASGYSFTIYWMHWVQQRPGQGLEWIGMIDPSDSETRLNQKFKDKATLTVDKSSSTAYMQLSSPTSEDSAVYYCARRGDYNFDYWGQGTTLTVSS VL: DIVMTQAAPSVPATPGESVSISCRSSKSLLHSNGNTYLYWFLQRPGQSPQLLIFRMSNLASGVPDRFSGSGSGTAFTLRISRVEAEDVGVYYCMQHLEYPYTFGGGTKLEIK
93.8

Let's switch to this binder now.
Query: percent blocking; subject: 1035753 (antibody, V domains shown) VH: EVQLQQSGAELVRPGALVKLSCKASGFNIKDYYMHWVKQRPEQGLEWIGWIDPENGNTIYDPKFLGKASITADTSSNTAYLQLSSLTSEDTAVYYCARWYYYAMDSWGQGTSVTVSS VL: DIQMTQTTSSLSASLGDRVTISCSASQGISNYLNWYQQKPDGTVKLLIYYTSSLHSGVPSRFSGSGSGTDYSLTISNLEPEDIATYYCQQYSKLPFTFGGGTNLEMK
0
